- Assay Details: Absorption of SAMe salts in rats: areas under the SAMe plasmatic concentration curves (AUC)
- Format: in vivo, Sprague Dawley male rats
- Assay Conditions: oral administration by gastric probe, 100 mg of active principle per kg, mean of 5 observations, extrapolated to infinity, 100 mg/kg
Answer Not fulfilled if AUC, oral administration is under 9000 N moles · ml^-1 × min, and Fulfilled if it is 9000 N moles · ml^-1 × min or more.

[[record]]
compound = "C[S+](CC[C@H](N)C(=O)[O-])C[C@H]1O[C@@H](n2cnc3c(N)ncnc32)[C@H](O)[C@@H]1O (some centres unmarked) [Example S16, SAMe tri hexadecanesulphonate]"
group_label = "Fulfilled"

[[record]]
compound = "C[S+](CC[C@H](N)C(=O)[O-])C[C@H]1O[C@@H](n2cnc3c(N)ncnc32)[C@H](O)[C@@H]1O (some centres unmarked) [DSS, SAMe tri dioctylsulphosuccinate]"
group_label = "Not fulfilled"

[[record]]
compound = "C[S+](CC[C@H](N)C(=O)[O-])C[C@H]1O[C@@H](n2cnc3c(N)ncnc32)[C@H](O)[C@@H]1O (some centres unmarked) [Example S5, SAMe tri pentanesulphonate, reference compound]"
group_label = "Not fulfilled"

[[record]]
compound = "C[S+](CC[C@H](N)C(=O)[O-])C[C@H]1O[C@@H](n2cnc3c(N)ncnc32)[C@H](O)[C@@H]1O (some centres unmarked) [Example S18, SAMe tri octadecanesulphonate]"
group_label = "Fulfilled"

[[record]]
compound = "C[S+](CC[C@H](N)C(=O)[O-])C[C@H]1O[C@@H](n2cnc3c(N)ncnc32)[C@H](O)[C@@H]1O (some centres unmarked) [Example S1, SAMe tri methanesulphonate, reference compound]"
group_label = "Not fulfilled"

[[record]]
compound = "C[S+](CC[C@H](N)C(=O)[O-])C[C@H]1O[C@@H](n2cnc3c(N)ncnc32)[C@H](O)[C@@H]1O (some centres unmarked) [Example S14, SAMe tri tetradecanesulphonate]"
group_label = "Fulfilled"

[[record]]
compound = "C[S+](CC[C@H](N)C(=O)[O-])C[C@H]1O[C@@H](n2cnc3c(N)ncnc32)[C@H](O)[C@@H]1O (some centres unmarked) [SAMe SO4 -PTS, SAMe disulphatep-toluenesulphonate, reference compound]"
group_label = "Not fulfilled"

[[record]]
compound = "C[S+](CC[C@H](N)C(=O)[O-])C[C@H]1O[C@@H](n2cnc3c(N)ncnc32)[C@H](O)[C@@H]1O (some centres unmarked) [DBS, SAMe tri dodecylbenzenesulphonate]"
group_label = "Not fulfilled"

[[record]]
compound = "C[S+](CC[C@H](N)C(=O)[O-])C[C@H]1O[C@@H](n2cnc3c(N)ncnc32)[C@H](O)[C@@H]1O (some centres unmarked) [Example S12, SAMe tri dodecanesulphonate]"
group_label = "Fulfilled"

[[record]]
compound = "C[S+](CC[C@H](N)C(=O)[O-])C[C@H]1O[C@@H](n2cnc3c(N)ncnc32)[C@H](O)[C@@H]1O (some centres unmarked) [Example S6, SAMe tri hexanesulphonate, reference compound]"
group_label = "Not fulfilled"


// provenance: patent US5128249A
